Just for reference, paper PMC10207366 is where these values come from.

Biological target: purified recombinant hsEH (Homo sapiens, UniProt P34913)
Sequence (P34913 1-555): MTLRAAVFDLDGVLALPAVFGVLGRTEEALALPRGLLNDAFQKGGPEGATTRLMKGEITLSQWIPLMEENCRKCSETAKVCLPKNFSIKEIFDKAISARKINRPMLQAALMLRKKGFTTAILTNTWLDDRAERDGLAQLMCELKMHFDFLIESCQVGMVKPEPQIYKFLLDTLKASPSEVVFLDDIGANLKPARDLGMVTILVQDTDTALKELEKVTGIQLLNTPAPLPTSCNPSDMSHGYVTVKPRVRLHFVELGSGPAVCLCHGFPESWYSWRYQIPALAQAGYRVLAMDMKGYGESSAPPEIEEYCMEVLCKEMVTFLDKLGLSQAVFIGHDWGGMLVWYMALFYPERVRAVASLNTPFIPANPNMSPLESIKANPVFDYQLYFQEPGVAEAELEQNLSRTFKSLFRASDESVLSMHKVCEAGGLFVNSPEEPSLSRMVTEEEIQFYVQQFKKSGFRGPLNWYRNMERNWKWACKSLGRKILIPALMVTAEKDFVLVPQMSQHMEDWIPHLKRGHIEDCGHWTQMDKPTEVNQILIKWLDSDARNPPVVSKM
Test: fluorescence-based sEH IC50 assay (CMNPC substrate)
Format: biochemical
Details: experimental, human sEH; read-out: pIC50 hsEH (converted)
Procedure: The IC50 values of the 18 compounds selected from the log P + HB and QE + R3 pharmacophore ranking were determined using a fluorescence-based assay[68] with either purified recombinant hsEH, mouse sEH (msEH), or rat sEH (rsEH). […] The activity was assessed by measuring the appearance of the fluorescent 6-methoxynaphthaldehyde product (λex = 330 nm, λem = 465 nm) every 30 s for 10 min at 30 °C on a SpectraMax M2 (Molecular Devices, CA). […]
endpoint_name: IC50 (nM)

Worked cases, answers included:
molecule: O=C(NCCC(c1ccccc1)c1ccccc1)NC1CCCCC1
IC50, nM: 0.398
//
molecule: CC1CCC(NC(=O)Nc2cccc(Cn3nc4ccccn4c3=O)c2)CC1 (stereo not shown)
IC50, nM: 0.794
//
molecule: Cc1ccc(C(C)C)c(OCc2ccc(C(=O)NNC(=O)NC34CC5CC(CC(C5)C3)C4)o2)c1
IC50, nM: 126

[I] CC(=O)CCc1ccc(OCC(=O)N2CCCC(CNC(=O)Nc3ccc(C)cc3)C2)cc1 (stereo not shown)
[II] O=C(NNC(=O)c1ccc(COc2ccccc2)cc1)NC12CC3CC(CC(C3)C1)C2
Lower value of IC50 belongs to which: I or II ? To answer, give the label that identifies your chosen option.
II
(II: 6.31 nM, I: 501 nM)

[A] O=C(NCCC(=O)N1CCN(S(=O)(=O)c2ccccc2F)CC1)NC12CC3CC(CC(C3)C1)C2
[B] CC(C(=O)NC(=O)NC12CC3CC(CC(C3)C1)C2)N1CCN(C(=O)C2COc3ccccc3O2)CC1 (stereo not shown)
Looking only at measured IC50, which entry is lower, A or B ? Use the label to indicate which entry you chose.
A
(A: 501 nM, B: 5010 nM)
